- System: HCC-2998 colon
- assay_remarks: NCI-60 one-dose screen, 48 h (100 = growth as untreated, 0 = no growth, -100 = all killed)
- cond: 10 µM unless noted
The panel holds about 83,000 compounds, 20% with a hit somewhere; the sample as a whole holds those more often.
result_type: growth (%)
Entry rule: numbers only, all in %.

API: value(readout=growth, system=HCC-2998 colon) for record Cc1ccc(C(=O)NCCCOc2ccc(N)cc2Cl)cc1S(=O)(=O)F
106

Requested read-out growth, target or system HCC-2998 colon, entry CC(=O)ONc1ccc([N+](=O)[O-])c(C(F)(F)F)c1
108

Param readout = growth; param system = HCC-2998 colon; param query = CCN(CCO)C(Cc1ccccc1)c1ccccc1 (centres undefined) ; response: value
96.8

Query for HCC-2998 colon: what growth does the record show for CCOC(=O)[C@@H](C)C[C@H](Cc1ccccc1)NC(=O)c1csc([C@@H](C[C@H](C(C)C)N(C)C(=O)[C@@H](NC(=O)[C@H]2CCCCN2C)C(C)(C)C)OC(C)=O)n1 ?
-2.49

Lab note: need growth with HCC-2998 colon for entry CC1(C)C(C(=O)c2cn(CCCCF)c3ccccc23)C1(C)C , please look it up.
116

Hi! What's the reported growth for CC[C@H](NC(=O)[C@H]1CCCCN1C)C(=O)N(C)[C@H](C[C@@H](OC(C)=O)c1nc(C(=O)N[C@@H](Cc2ccccc2)C[C@H](C)C(=O)O)cs1)C(C)C on HCC-2998 colon?
8.05

API: value(readout= growth, system= HCC-2998 colon, query= CS(=O)(=O)CCN1CC2CCCC(C2)C1 )
99.5

State its growth on HCC-2998 colon: CC(=O)Nc1nc2c(s1)CC[C@@]1(C)C2=CC[C@H]2[C@@H]3CC[C@H](O)[C@@]3(C)CC[C@@H]21
96

Provide value of growth for this record tested with HCC-2998 colon: CC1CCCC(C[N+](C)(C)C)C1=O (centres undefined)
102

====

So I've got a bunch of molecules here, and I need their growth values.
- Test system: SF-295 CNS
- assay_remarks: NCI-60 one-dose screen, 48 h (100 = growth as untreated, 0 = no growth, -100 = all killed)
- cond: 10 µM unless noted
Compounds without any hit were thinned out: in the full panel of roughly 83,000, 20% have a hit.
Give the quantity in %, number only.

Endpoint output: growth of CC(C)COC(C[N+](=O)[O-])C(Cl)(Cl)Cl (configuration not stated) . Value?
113

Quick check: growth of c1cc2c(c3c1CCNC3)OCO2 ?
96.4

Entry under review: O=C(CN1CCN(C(=O)c2ccco2)CC1)Nc1ccc(Cl)cc1C(=O)c1ccccc1Cl . Reported growth?
109

Data request, read-out growth, for CC(=O)O[C@H](C[C@H](C(C)C)N(C)C(=O)[C@@H](NC(=O)[C@H]1CCCCN1C)C(C)C)c1nc(C(=O)N[C@@H](Cc2ccccc2)C[C@H](C)C(=O)O)c(C)s1
15.9

Bench note: what growth did C[C@]12CC[C@H]3[C@@H](CC4SC(N)=NC45C/C(=N/NC(N)=O)CC[C@]35C)[C@@H]1CCC2=O (some centres not stated) show?
45.7

growth for O=C(O)C(O)C(O)C1[O][Sb]([c]2ccc([N+](=O)[O-])cc2)[O]C1CO (configuration not stated) ?
101

Which value of growth has been reported for CCN(CC)CCOC(=O)C(OC(C)C)(c1ccccc1)c1ccccc1 in the records?
109

Look up growth for this molecule: C/C(=C\c1ccn(-c2ccc(N)cc2C(F)(F)F)n1)[C@@H]1C[C@@H]2O[C@]2(C)CCC[C@H](C)[C@H](O)[C@@H](C)C(=O)C(C)(C)[C@@H](O)CC(=O)O1
2.39

Give its growth value. Item: CCCCCCCCCCCCCCCCCCOc1ccccc1COP(=O)(O)OOCC[N+](C)(C)C
27.2

Dear colleague, I am looking for the recorded growth of the following molecule: O=C(CC1(O)C(=O)N(Cc2ccccc2)c2ccc(F)cc21)c1ccc(C(=O)NCC2CCC3(CC2)OOC2(CCCCC2)OO3)cc1 (configuration not stated)
-14.1

# get_value(readout='growth', item= Clc1cccc(Cl)c1Cl )
95.1

Param item = CCC(C)(C)[C@H](NC(=O)[C@H]1CCCCN1C)C(=O)N(C)[C@H](C[C@@H](OC(C)=O)c1nc(C(=O)N[C@@H](Cc2ccccc2)C[C@H](C)C(=O)O)cs1)C(C)C ; retrieve measured growth.
-7.51

# input molecule: N/C(=N/N=C/c1ccncc1)N[N+](=O)[O-] ; wanted: its growth
99.5

Look at this molecule and give its reported growth. COC(=O)[C@@H](C)C[C@H](Cc1ccccc1)NC(=O)c1csc([C@@H](C[C@H](C(C)C)N(C)C(=O)[C@@H](NC(=O)C23CC(NC(C)=O)(C2)C3)C2CC2)OC(C)=O)n1
82

What does the record list as growth for C[C@]12CCc3sc(-c4ccccc4O)nc3C1=CC[C@@H]1[C@@H]2CC[C@]2(C)C(=O)CC[C@@H]12 ?
100

Bench note: what growth did CC(=O)O[C@H]1C(=O)[C@@]2(C)[C@H]([C@H](OC(=O)c3ccccc3)[C@]3(O)C[C@H](OC(=O)[C@H](OC(=O)OC[C@@H]4COC(C)(C)O4)[C@@H](NC(=O)c4ccccc4)c4ccccc4)C(C)=C1C3(C)C)[C@]1(OC(C)=O)CO[C@@H]1C[C@@H]2O show?
-7.77

Entry under review: COc1ccc(NC([Se])=NC23CC4CC(CC(C4)C2)C3)cc1 . Reported growth?
-23.6

Can you look up the measured growth of N#CC1C(C#N)C2CCC1C1C2N1c1ccccc1 (configuration not stated) for me?
103

Look up growth for this molecule: CC(=O)O[C@H](C[C@H](C(C)C)N(C)C(=O)[C@@H](NC(=O)[C@H]1CCCN1C)C(C)C)c1nc(C(=O)N[C@@H](Cc2ccccc2)C[C@H](C)C(=O)O)c(C)s1
11

Please give the measured growth for this molecule: COC1OC(CO)C(O)C(O)[CH]1[Hg][O]C(C)=O (configuration not stated)
102

Can you share its growth? I mean this molecule: COc1cccc(C=NC(Cc2cnc[nH]2)C(=O)O)c1O (configuration not stated)
70.3

Look up growth: C/C1=C/C(=O)O[C@@H]2C[C@@H](CC[C@H](C)/C=C\C=C\CC1)O[C@@](O)([C@@H]1CSC(=O)N1CO)C2
13.5

Entry O=[N+]([O-])c1ccc([Se]C2CCCCC2Cl)c([N+](=O)[O-])c1 (configuration not stated) : reported growth = ?
-41.3

Reported growth for Fc1ccc2c(c1)c(-c1nc(-c3c[nH]c4ncccc34)cs1)cn2CCCCN1CCCCC1 : what is it?
-60.7

Name the reported growth value associated with the molecule COc1ccc(-n2c(C)nc3cc(OC)c(OC)cc3c2=O)cc1OC
100

Look at this molecule and give its reported growth. CCCCCCCCC(CO)NCCc1ccccc1 (configuration not stated)
98.1

For the molecule shown here, NC(=O)C(Br)c1ccccc1 (configuration not stated) , give the reported growth.
97

Quick one: growth for CCC1CN1CCCCN1CC1CC (configuration not stated) ?
95.3

If you can, please state the reported growth value of Cc1sc2c(c1C)C(c1ccc(Cl)cc1)=N[C@@H](CC(=O)OC(C)(C)C)c1nnc(C)n1-2 .
37.6

Item COc1cc2c(=O)n(C3CCCCCCC3)c3c4cc[nH]c4ncc3c2cc1OC has what recorded growth?
33.2

Please look up its growth: Cc1ccccc1NC(=NCCCN1CC1)Nc1ccccc1C
103

Query (molecule): O=C1C2CCC1C(N1CCCC1)CC2 (configuration not stated) ; field requested: growth
95.5

For Cc1c(O)c(CN(CCCl)CCCl)cc(CN(CCCl)CCCl)c1O , what is its reported growth?
93.9

Any idea what its growth is? The molecule is Cc1ccc(S(=O)(=O)F)cc1C(=O)O
95.1

Which growth is reported for this molecule? O=C1Nc2ccccc2C2c3cccn3-c3ccccc3CN12 (configuration not stated)
59.8

Requested field: growth. Item: CCOc1ccccc1C(=O)OCC(Cl)(Cl)Cl
105

Find the recorded growth belonging to Cc1cc(C)c(CBr)c(C)c1 and report it.
101

Provenance of the data: PubChem BioAssay (NCI)
